Provide the recorded log p for the entries that follow.
experiment: logP (HPLC-MS); assay type: physicochemical; details: HPLC, reversed-phase column (C18), acidic range pH 2.7, acetonitrile (0.1% formic acid)/water gradient, 43° C., calibration with unbranched alkan-2-ones

Task item: What log p value was documented for this molecule, C#CCn1c(C(=O)NC(c2cccc(Cl)c2)C(F)(F)F)cc2cc(C(=O)NC3(C#N)CC3)c(Cl)cc21 (centres unmarked) [Compound 58] ?
Reply: 3.42

Task item: What log p value was documented for this molecule, CCn1c(C(=O)NC(c2ccc(F)c(Br)c2)C(F)(F)F)cc2cc(C(=O)NC3CC3)c(Cl)cc21 (centres unmarked) [Compound 12] ?
Reply: 3.82

Task item: What log p value was documented for this molecule, CCn1c(C(=O)NC(c2ccc(F)c(C(F)(F)F)c2)C(F)(F)F)cc2cc(C(=O)NC3CC3)c(Cl)cc21 (centres unmarked) [Compound 3] ?
Reply: 3.93

Task item: What log p value was documented for this molecule, CCn1c(C(=O)NC(c2ccc(F)c(Cl)c2)C(F)(F)F)cc2cc(C(=O)NC3(C#N)CC3)c(Cl)cc21 (centres unmarked) [Compound 20] ?
Reply: 3.79

Task item: What log p value was documented for this molecule, CCn1c(C(=O)NC(c2cccc(C(F)(F)F)c2)C(F)(F)F)cc2cc(C(=O)NC3(C)CC3C)c(Cl)cc21 (centres unmarked) [Compound 266] ?
Reply: 4.41

Task item: What log p value was documented for this molecule, Cn1c(C(=O)NC(c2cccc(Br)c2)C(F)(F)F)cc2cc(C(=O)NC3(C#N)CC3)c(Cl)cc21 (centres unmarked) [Compound 48] ?
Reply: 3.39

Task item: What log p value was documented for this molecule, C#CCn1c(C(=O)NC(c2cccc(C(F)(F)F)c2)C(F)(F)F)cc2cc(C(=O)NC3(C#N)CC3)c(C)cc21 (centres unmarked) [Compound 209] ?
Reply: 3.48

Task item: What log p value was documented for this molecule, Cn1c(C(=O)NC(c2ccc(F)c(Cl)c2)C(F)(F)F)cc2cc(C(=O)NC3(C#N)CC3)c(Cl)cc21 (centres unmarked) [Compound 54] ?
Reply: 3.52

Task item: What log p value was documented for this molecule, CCn1c(C(=O)NC(c2cccc(C(F)(F)F)c2)C(F)(F)F)cc2cc(C(=O)NC(C)C#N)c(Cl)cc21 (centres unmarked) [Compound 9] ?
Reply: 3.72

Task item: What log p value was documented for this molecule, CCn1c(C(=O)NC(c2cccc(C(F)(F)F)c2)C(F)(F)F)cc2cc(C(=O)NC(C)CC#N)c(Cl)cc21 (centres unmarked) [Compound 269] ?
Reply: 3.78

Task item: What log p value was documented for this molecule, Cn1c(C(=O)NC(c2cccc(C(F)(F)F)c2)C(F)(F)F)cc2cc(C(=O)NC3(C#N)CC3)c(Cl)cc21 (centres unmarked) [Compound 44] ?
Reply: 3.55

Task item: What log p value was documented for this molecule, CCn1c(C(=O)NC(c2cccc(C(F)(F)F)c2)C(F)(F)F)cc2cc(C(=O)NC3(C4CC4)CC3)c(Cl)cc21 (centres unmarked) [Compound 29] ?
Reply: 4.45

Task item: What log p value was documented for this molecule, N#CC1(NC(=O)c2cc3cc(C(=O)NC(c4cccc(C(F)(F)F)c4)C(F)(F)F)n(CC4CC4)c3cc2Cl)CC1 (centres unmarked) [Compound 272] ?
Reply: 4.03

Task item: What log p value was documented for this molecule, C#CCn1c(C(=O)NC(c2ccc(F)c(C(F)(F)F)c2)C(F)(F)F)cc2cc(C(=O)NC3(C#N)CC3)c(Cl)cc21 (centres unmarked) [Compound 61] ?
Reply: 3.65

----------
test: logP (HPLC-MS); type: physicochemical; conditions: HPLC, reversed-phase column (C18), 43° C., acidic range pH 2.7, EEC directive 79/831 Annex V.A8; two values = both regioisomers (G = N)
Provide the recorded log p for the entries that follow.

Task item: What log p value was documented for this molecule, CCc1cc2c(cc1C(=O)NC1(C#N)CC1)cc(C(=O)NC(c1cccc(C(F)(F)F)c1)C(F)(F)F)n2CC (stereo not shown) ?
Reply: 3.98

Task item: What log p value was documented for this molecule, CC#CCn1c(C(=O)NC(c2cccc(C(F)(F)F)c2)C(F)(F)F)cc2cc(C(=O)NC3(C#N)CC3)c(Cl)cc21 (stereo not shown) ?
Reply: 3.87

Task item: What log p value was documented for this molecule, C=Cn1c(C(=O)NC(c2cccc(C(F)(F)F)c2)C(F)(F)F)cc2cc(C(=O)NC3(C#N)CC3)ccc21 (stereo not shown) ?
Reply: 3.48

Task item: What log p value was documented for this molecule, O=C(NC1CC1)c1cc2nc(C(=O)NC(c3ccc(F)c(C(F)(F)F)c3)C(F)(F)F)n(C3CC3)c2cc1Br (stereo not shown) ?
Reply: 3.59

----------
Provide the recorded log p for the entries that follow.
assay: logP (HPLC-MS); assay type: physicochemical; details: HPLC, reversed-phase column (C18), 43° C., acidic range pH 2.7, EEC directive 79/831 Annex V.A8; two values = both regioisomers (G = N)

Task item: What log p value was documented for this compound, CCn1c(C(=O)NC(c2cc(Cl)c(Cl)c(Cl)c2)C(F)(F)F)cc2cc(C(=O)NC3(C#N)CC3)c(C)cc21 (stereo not shown) [Compound 289] ?
Reply: 4.43

Task item: What log p value was documented for this compound, CCn1c(C(=O)NC(c2ccc(F)c(C(F)(F)F)c2)C(F)(F)F)cc2cc(C(=O)NC3CCC3)c(C)cc21 (stereo not shown) [Compound 304] ?
Reply: 4.24

Task item: What log p value was documented for this compound, CCn1c(C(=O)NC(c2cc(Cl)c(F)c(Cl)c2)C(F)(F)F)cc2cc(C(=O)NC3CC3)c(Cl)cc21 (stereo not shown) [Compound 327] ?
Reply: 4.29

Task item: What log p value was documented for this compound, C=CCN(C(=O)c1cc2nc(C(=O)NC(c3cccc(C(F)(F)F)c3)C(F)(F)F)n(CC=C)c2cc1Cl)C1CC1 (stereo not shown) [Compound 309] ?
Reply: 4.74

Task item: What log p value was documented for this compound, N#CC1(NC(=O)c2cc3cc(C(=O)NC(c4cccc(C(F)(F)F)c4)C(F)(F)F)n(Cc4ccccc4)c3cc2Cl)CC1 (stereo not shown) [Compound 284] ?
Reply: 4.07

Task item: What log p value was documented for this compound, CCn1c(C(=O)NC(c2cccc(C(F)(F)F)c2)C(F)(F)F)cc2cc(C(=O)NC(C#N)(COC)COC)c(Cl)cc21 (stereo not shown) [Compound 325] ?
Reply: 4.16

Task item: What log p value was documented for this compound, CCn1c(C(=O)NC(c2ccc3c(c2)OC(F)(F)O3)C(F)(F)F)cc2cc(C(=O)NC3(C#N)CC3)c(C)cc21 (stereo not shown) [Compound 308] ?
Reply: 3.80

Task item: What log p value was documented for this compound, N#CC1(NC(=O)c2cc3cc(C(=O)NC(c4cccc(C(F)(F)F)c4)C(F)(F)F)n(COCc4ccccc4)c3cc2Cl)CC1 (stereo not shown) [Compound 286] ?
Reply: 4.17

Task item: What log p value was documented for this compound, CCn1c(C(=O)NC(c2ccc(Cl)c(Cl)c2)C(F)(F)F)cc2cc(C(=O)NC3CC3)c(C)cc21 (stereo not shown) [Compound 297] ?
Reply: 3.99

Task item: What log p value was documented for this compound, CCn1c(C(=O)NC(c2cccc(C(F)(F)F)c2)C(F)(F)F)cc2cc(C(=O)NC3(C#N)CC3)c(C(C)C)cc21 (stereo not shown) [Compound 319] ?
Reply: 4.08

----------
Provide the recorded log p for the entries that follow.
test: logP (HPLC-MS); type: physicochemical; settings: HPLC, reversed-phase column (C18), 43° C., acidic range pH 2.7, EEC directive 79/831 Annex V.A8; two values = both regioisomers (G = N)
Output: the number by itself.

Task item: What log p value was documented for this compound, CCn1c(C(=O)NC(c2ccc(F)c(F)c2)C(F)(F)F)cc2cc(C(=O)NC3CC3)c(C)cc21 (stereo not shown) [Compound 295] ?
Reply: 3.40

Task item: What log p value was documented for this compound, C=CCn1c(C(=O)NC(c2cccc(C(F)(F)F)c2)C(F)(F)F)cc2cc(C(=O)NC3(C#N)CC3)c(Cl)cc21 (stereo not shown) [Compound 283] ?
Reply: 3.74

Task item: What log p value was documented for this compound, CCn1c(C(=O)NC(c2ccc(F)c(C(F)(F)F)c2)C(F)(F)F)cc2cc(C(=O)NC(CF)CF)c(C)cc21 (stereo not shown) [Compound 306] ?
Reply: 4.03

Task item: What log p value was documented for this compound, CCN(CC)C(=O)c1cc2cc(C(=O)NC(c3ccc(F)c(Cl)c3)C(F)(F)F)n(CC)c2cc1C (stereo not shown) [Compound 320] ?
Reply: 4.35

Task item: What log p value was documented for this compound, CCn1c(C(=O)NC(c2ccc3c(c2)OC(F)(F)O3)C(F)(F)F)cc2cc(C(=O)NC3CC3)c(C)cc21 (stereo not shown) [Compound 307] ?
Reply: 3.81

Task item: What log p value was documented for this compound, CCn1c(C(=O)NC(c2ccc(F)c(F)c2)C(F)(F)F)cc2cc(C(=O)NC3(C#N)CC3)c(Cl)cc21 (stereo not shown) [Compound 315] ?
Reply: 3.47

Task item: What log p value was documented for this compound, CCn1c(C(=O)NC(c2cc(F)cc(Cl)c2)C(F)(F)F)cc2cc(C(=O)NC3(C#N)CC3)c(C)cc21 (stereo not shown) [Compound 293] ?
Reply: 3.85
